List of Ki values.
biological target: Kappa-type opioid receptor (Homo sapiens); assay: biochemical; format: cell-based, CHO;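 further: radioligand displacement of [3H]diprenorphine from human kappa opioid receptor in CHO cell membranes, in vitro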
Sequence (P41145 whole entry): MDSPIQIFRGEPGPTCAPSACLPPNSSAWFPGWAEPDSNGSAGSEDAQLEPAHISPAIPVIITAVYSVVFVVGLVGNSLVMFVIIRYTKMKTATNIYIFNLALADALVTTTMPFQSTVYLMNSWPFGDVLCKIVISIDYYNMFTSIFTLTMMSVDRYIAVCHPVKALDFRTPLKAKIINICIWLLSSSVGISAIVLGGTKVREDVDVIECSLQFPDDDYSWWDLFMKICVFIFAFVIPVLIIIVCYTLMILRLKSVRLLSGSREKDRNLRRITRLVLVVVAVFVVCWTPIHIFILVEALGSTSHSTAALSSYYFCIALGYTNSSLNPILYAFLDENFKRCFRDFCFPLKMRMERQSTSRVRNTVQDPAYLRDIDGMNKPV
measurement.name: Ki (µM)

INSERT INTO assay_data (substance, tested_target, readout_number) VALUES
  ('H-YGPFLRRI-NH2', 'Kappa-type opioid receptor (Homo sapiens)', 0.0794),
  ('H-YGPFLRR-NH2', 'Kappa-type opioid receptor (Homo sapiens)', 0.0603),
  ('H-YGPFLRRIR-NH2', 'Kappa-type opioid receptor (Homo sapiens)', 0.0107),
  ('H-YGGFLR-OH', 'Kappa-type opioid receptor (Homo sapiens)', 0.404),
  ('H-YGPFLR-NH2', 'Kappa-type opioid receptor (Homo sapiens)', 5.6),
  ('H-YGGFLRRIR-OH', 'Kappa-type opioid receptor (Homo sapiens)', 0.0025);

* * *

biological target: Mu-type opioid receptor (Homo sapiens, UniProt P35372); assay: biochemical; type: cell-based, CHO;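 further: [3H]diprenorphine displacement binding on CHO cell membranes bearing the human mu opioid receptor, in vitro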
Sequence (P35372 whole entry): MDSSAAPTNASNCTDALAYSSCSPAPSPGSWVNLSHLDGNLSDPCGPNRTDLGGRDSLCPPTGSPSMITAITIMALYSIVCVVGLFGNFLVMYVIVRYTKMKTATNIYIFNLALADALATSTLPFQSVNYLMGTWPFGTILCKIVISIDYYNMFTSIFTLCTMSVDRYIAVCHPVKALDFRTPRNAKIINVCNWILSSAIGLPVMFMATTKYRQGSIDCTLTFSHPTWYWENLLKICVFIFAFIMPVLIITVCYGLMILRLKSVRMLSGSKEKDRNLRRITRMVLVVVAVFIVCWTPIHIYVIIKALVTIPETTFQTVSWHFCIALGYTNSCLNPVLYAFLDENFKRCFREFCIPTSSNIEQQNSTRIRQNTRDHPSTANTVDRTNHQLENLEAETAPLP
pKi: −log10 of the molar value. Non-standard residues stand in square brackets, D forms with d. Residues, ends and D or L forms follow the SMILES beside them. Nle = CCCC[C@H](N)C(=O)O
pKi below 7 gives 0.0; pKi at or above it gives 1.0.

INSERT INTO measurements (compound, tested_target, qualitative_label) VALUES
  ('CC[C@H](C)[C@H](NC(=O)[C@H](CCCNC(=N)N)NC(=O)[C@H](CCCNC(=N)N)NC(=O)[C@H](CC(C)C)NC(=O)[C@H](Cc1ccccc1)NC(=O)CNC(=O)CNC(=O)[C@@H](N)Cc1ccc(O)cc1)C(=O)N[C@@H](CCCNC(=N)N)C(=O)N1CCC[C@H]1C(=O)O', 'Mu-type opioid receptor (Homo sapiens, UniProt P35372)', 1.0),
  ('CC(C)C[C@H](NC(=O)[C@H](Cc1ccccc1)NC(=O)[C@@H]1CCCN1C(=O)CNC(=O)[C@@H](N)Cc1ccc(O)cc1)C(=O)N[C@@H](CCCN=C(N)N)C(=O)N[C@@H](CCCN=C(N)N)C(=O)N[C@@H](CCCN=C(N)N)C(N)=O', 'Mu-type opioid receptor (Homo sapiens, UniProt P35372)', 0.0),
  ('CC(C)C[C@H](NC(=O)[C@H](Cc1ccccc1)NC(=O)CNC(=O)CNC(=O)[C@@H](N)Cc1ccc(O)cc1)C(=O)N[C@@H](CCCNC(=N)N)C(=O)N[C@@H](CCCNC(=N)N)C(=O)O', 'Mu-type opioid receptor (Homo sapiens, UniProt P35372)', 1.0),
  ('CC[C@H](C)[C@H](NC(=O)[C@H](CCCNC(=N)N)NC(=O)[C@H](CCCNC(=N)N)NC(=O)[C@H](CC(C)C)NC(=O)[C@H](Cc1ccccc1)NC(=O)[C@@H]1CCCN1C(=O)CNC(=O)[C@@H](N)Cc1ccc(O)cc1)C(=O)N[C@@H](CCCNC(=N)N)C(=O)N1CCC[C@H]1C(=O)N[C@@H](CCCCN)C(N)=O', 'Mu-type opioid receptor (Homo sapiens, UniProt P35372)', 0.0),
  ('CCCC[C@H](NC(=O)[C@H](CC(C)C)NC(=O)[C@H](Cc1ccccc1)NC(=O)[C@@H]1CCCN1C(=O)CNC(=O)[C@@H](N)Cc1ccc(O)cc1)C(=O)N[C@@H](CCCN=C(N)N)C(N)=O (H-YGPFL[Nle]R-NH2)', 'Mu-type opioid receptor (Homo sapiens, UniProt P35372)', 0.0),
  ('CC[C@H](C)[C@H](NC(=O)[C@H](CCCN=C(N)N)NC(=O)[C@H](CCCN=C(N)N)NC(=O)[C@H](CC(C)C)NC(=O)[C@H](Cc1ccccc1)NC(=O)CNC(=O)CNC(=O)[C@@H](N)Cc1ccc(O)cc1)C(=O)O', 'Mu-type opioid receptor (Homo sapiens, UniProt P35372)', 1.0);

Source listed as ChEMBL document CHEMBL1144926.
